# solubility annotations
Test: Solubility at pH 4.0
Type: physicochemical
Settings: buffer

SMILES_STR: CO/C(C)=C1/NC(=O)[C@H]([C@@H](C)O)NC(=O)c2csc(n2)-c2cc(O)c(-c3nc(C(=O)N[C@@H](C)C(=O)N(C)CCO)cs3)nc2-c2csc(n2)[C@@H]2COC(=O)c3c4c5c(cccc5n3O)COC(=O)[C@@H](O[C@H]3C[C@](C)(O)[C@H](N(C)C)[C@H](C)O3)[C@@H](OC4)[C@H](NC(=O)c3csc1n3)c1nc(cs1)C(=O)N2
SCALE_UNIT: µg/mL
solubility: 2300
--
SMILES_STR: C=C(NC(=O)c1csc(-c2nc3c(cc2O)-c2nc(cs2)C(=O)N[C@@H]([C@@H](C)O)C(=O)N/C(=C(\C)OC)c2nc(cs2)C(=O)N[C@@H]2c4nc(cs4)C(=O)N[C@@H](COC(=O)c4c5c6c(cccc6n4O)COC(=O)[C@@H](O[C@H]4C[C@](C)(O)[C@H](N(C)C)[C@H](C)O4)[C@H]2OC5)c2nc-3cs2)n1)C(N)=O
SCALE_UNIT: µg/mL
solubility: 340

---

Assay: Solubility at pH 3.5
Format: physicochemical
Details: buffer

SMILES_STR: CO/C(C)=C1/NC(=O)[C@H]([C@@H](C)O)NC(=O)c2csc(n2)-c2cc(O)c(-c3nc(C(=O)N[C@@H](C)C(=O)NCCN(C)C)cs3)nc2-c2csc(n2)[C@@H]2COC(=O)c3c4c5c(cccc5n3O)COC(=O)[C@@H](O[C@H]3C[C@](C)(O)[C@H](N(C)C)[C@H](C)O3)[C@@H](OC4)[C@H](NC(=O)c3csc1n3)c1nc(cs1)C(=O)N2
solubility: > 2400 µg/mL

---

Assay: Solubility at pH 8.7
Type: physicochemical
Conditions: buffer
OUTCOME_MEASURE: solubility

SMILES_STR: CO/C(C)=C1/NC(=O)[C@H]([C@@H](C)O)NC(=O)c2csc(n2)-c2cc(O)c(-c3nc(C(=O)N[C@@H](C)C(=O)NCCc4ccc(S(=O)(=O)O)cc4)cs3)nc2-c2csc(n2)[C@@H]2COC(=O)c3c4c5c(cccc5n3O)COC(=O)[C@@H](O[C@H]3C[C@](C)(O)[C@H](N(C)C)[C@H](C)O3)[C@@H](OC4)[C@H](NC(=O)c3csc1n3)c1nc(cs1)C(=O)N2
OUTCOME_MEASURE: solubility
MEASURED_VALUE: > 1.2 mg/mL

---

Test: Solubility at pH 8.1
Assay type: physicochemical
Details: buffer

SMILES_STR: CO/C(C)=C1/NC(=O)[C@H]([C@@H](C)O)NC(=O)c2csc(n2)-c2cc(O)c(-c3nc(C(=O)N[C@@H](C)C(=O)NCCCP(=O)([O-])O)cs3)nc2-c2csc(n2)[C@@H]2COC(=O)c3c4c5c(cccc5n3O)COC(=O)[C@@H](O[C@H]3C[C@](C)(O)[C@H](N(C)C)[C@H](C)O3)[C@@H](OC4)[C@H](NC(=O)c3csc1n3)c1nc(cs1)C(=O)N2.[Na+]
solubility: > 1700 µg/mL

---

Each record here notes measured MIC.
System: Streptococcus pneumoniae
Assay: Antibacterial activity against penicillin resistant Streptococcus pneumoniae A28272
Assay type: functional

SMILES_STR: CO/C(C)=C1/NC(=O)[C@H]([C@@H](C)O)NC(=O)c2csc(n2)-c2cc(O)c(-c3nc(C(=O)N[C@@H](C)C(=O)N4CCC(O)CC4)cs3)nc2-c2csc(n2)[C@@H]2COC(=O)c3c4c5c(cccc5n3O)COC(=O)[C@@H](O[C@H]3C[C@](C)(O)[C@H](N(C)C)[C@H](C)O3)[C@@H](OC4)[C@H](NC(=O)c3csc1n3)c1nc(cs1)C(=O)N2
TARGET_OR_TEST_SYSTEM: Streptococcus pneumoniae
MIC, µg/mL: 0.003
--
SMILES_STR: CO/C(C)=C1/NC(=O)[C@H]([C@@H](C)O)NC(=O)c2csc(n2)-c2cc(O)c(-c3nc(C(=O)N[C@@H](C)C(=O)NCc4ccc(CP(=O)(O)O)cc4)cs3)nc2-c2csc(n2)[C@@H]2COC(=O)c3c4c5c(cccc5n3O)COC(=O)[C@@H](O[C@H]3C[C@](C)(O)[C@H](N(C)C)[C@H](C)O3)[C@@H](OC4)[C@H](NC(=O)c3csc1n3)c1nc(cs1)C(=O)N2
TARGET_OR_TEST_SYSTEM: Streptococcus pneumoniae
MIC, µg/mL: 0.25
--
SMILES_STR: CO/C(C)=C1/NC(=O)[C@H]([C@@H](C)O)NC(=O)c2csc(n2)-c2cc(O)c(-c3nc(C(=O)N[C@@H](C)C(=O)NCc4ccc(O)cc4)cs3)nc2-c2csc(n2)[C@@H]2COC(=O)c3c4c5c(cccc5n3O)COC(=O)[C@@H](O[C@H]3C[C@](C)(O)[C@H](N(C)C)[C@H](C)O3)[C@@H](OC4)[C@H](NC(=O)c3csc1n3)c1nc(cs1)C(=O)N2
TARGET_OR_TEST_SYSTEM: Streptococcus pneumoniae
MIC, µg/mL: 0.007
--
SMILES_STR: CO/C(C)=C1/NC(=O)[C@H]([C@@H](C)O)NC(=O)c2csc(n2)-c2cc(O)c(-c3nc(C(=O)N[C@@H](C)C(=O)NCCO)cs3)nc2-c2csc(n2)[C@@H]2COC(=O)c3c4c5c(cccc5n3O)COC(=O)[C@@H](O[C@H]3C[C@](C)(O)[C@H](N(C)C)[C@H](C)O3)[C@@H](OC4)[C@H](NC(=O)c3csc1n3)c1nc(cs1)C(=O)N2
TARGET_OR_TEST_SYSTEM: Streptococcus pneumoniae
MIC, µg/mL: 0.001
--
SMILES_STR: CO/C(C)=C1/NC(=O)[C@H]([C@@H](C)O)NC(=O)c2csc(n2)-c2cc(O)c(-c3nc(C(=O)N[C@@H](C)C(=O)NCCc4ccc(S(=O)(=O)O)cc4)cs3)nc2-c2csc(n2)[C@@H]2COC(=O)c3c4c5c(cccc5n3O)COC(=O)[C@@H](O[C@H]3C[C@](C)(O)[C@H](N(C)C)[C@H](C)O3)[C@@H](OC4)[C@H](NC(=O)c3csc1n3)c1nc(cs1)C(=O)N2
TARGET_OR_TEST_SYSTEM: Streptococcus pneumoniae
MIC, µg/mL: 0.125
--
SMILES_STR: CO/C(C)=C1/NC(=O)[C@H]([C@@H](C)O)NC(=O)c2csc(n2)-c2cc(O)c(-c3nc(C(=O)N[C@@H](C)C(=O)NCCCN4CCCC4)cs3)nc2-c2csc(n2)[C@@H]2COC(=O)c3c4c5c(cccc5n3O)COC(=O)[C@@H](O[C@H]3C[C@](C)(O)[C@H](N(C)C)[C@H](C)O3)[C@@H](OC4)[C@H](NC(=O)c3csc1n3)c1nc(cs1)C(=O)N2
TARGET_OR_TEST_SYSTEM: Streptococcus pneumoniae
MIC, µg/mL: 0.25
